Reference source for all entries: ChEMBL document CHEMBL4219257

For each record, write down the corresponding pIC50.
MEASURED ON: Amyloid-beta precursor protein (Homo sapiens, UniProt P05067)
Sequence (P05067 whole entry): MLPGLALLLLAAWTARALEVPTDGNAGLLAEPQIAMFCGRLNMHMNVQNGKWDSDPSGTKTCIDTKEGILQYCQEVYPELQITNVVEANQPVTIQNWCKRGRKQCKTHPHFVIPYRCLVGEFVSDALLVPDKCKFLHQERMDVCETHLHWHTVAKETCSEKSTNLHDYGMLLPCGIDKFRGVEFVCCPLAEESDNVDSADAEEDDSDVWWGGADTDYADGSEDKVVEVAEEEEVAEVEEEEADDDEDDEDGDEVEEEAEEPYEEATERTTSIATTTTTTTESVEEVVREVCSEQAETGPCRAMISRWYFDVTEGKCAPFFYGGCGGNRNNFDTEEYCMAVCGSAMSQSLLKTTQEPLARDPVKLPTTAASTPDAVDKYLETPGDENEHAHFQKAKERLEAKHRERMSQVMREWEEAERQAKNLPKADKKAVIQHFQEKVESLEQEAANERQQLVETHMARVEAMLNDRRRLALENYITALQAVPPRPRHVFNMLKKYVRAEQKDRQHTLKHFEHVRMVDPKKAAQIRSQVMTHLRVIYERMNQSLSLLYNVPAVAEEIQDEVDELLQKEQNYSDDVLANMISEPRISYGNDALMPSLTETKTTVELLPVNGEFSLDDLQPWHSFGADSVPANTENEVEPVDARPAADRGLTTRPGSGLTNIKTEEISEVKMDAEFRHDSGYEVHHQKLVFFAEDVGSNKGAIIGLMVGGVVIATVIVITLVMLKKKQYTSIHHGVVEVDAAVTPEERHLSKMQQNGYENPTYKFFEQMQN
PROCEDURE SUMMARY: Inhibition of HFIP-pretreated amyloid beta (1 to 42) (unknown origin) self-induced aggregation after 48 hrs by thioflavin T-based fluorometric assay
Please note pIC50 is a logarithmic value: minus log10 of concentration in mol/L. Answer with that number alone.

Data request: # return recorded pIC50 for entry `O=C(/C=C/c1ccc(F)cc1)N1CCN(Cc2ccc(O)c3ncccc23)CC1`
Data returned: 4.94

Data request: # return recorded pIC50 for entry `O=C(/C=C/c1ccccc1)N1CCN(Cc2ccc(O)c3ncccc23)CC1`
Data returned: 5.05

Data request: # return recorded pIC50 for entry `O=C(/C=C/c1ccccc1Cl)N1CCN(Cc2ccc(O)c3ncccc23)CC1`
Data returned: 5.13

Data request: # return recorded pIC50 for entry `O=C(CCc1ccccc1)N1CCN(Cc2ccc(O)c3ncccc23)CC1`
Data returned: 4.70

Data request: # return recorded pIC50 for entry `N#Cc1ccc(/C=C/C(=O)N2CCN(Cc3ccc(O)c4ncccc34)CC2)cc1`
Data returned: 4.77

Data request: # return recorded pIC50 for entry `O=C(/C=C/c1ccc(Cl)cc1)N1CCN(Cc2ccc(O)c3ncccc23)CC1`
Data returned: 4.65
